- Test system: DU-4475
- procedure.text: normalised response (% of control), CellTox Green; higher = less cell death (100 = DMSO, 0 = benzethonium chloride kill control)
- condition.label: incubation time: 72 h
quantity.kind: normalised response (%)

# molecule, meas.value
records = [
    ("Cn1cnc2c(F)c(Nc3ccc(Br)cc3F)c(C(=O)NOCCO)cc21 [MEK-162] (1000 nM)", 68.7),
    ("Nc1nccc(-c2c(-c3ccc(F)cc3)ncn2C2CCCCC2)n1 (1000 nM)", 107),
    ("COc1ccc(C2=N[C@@H](c3ccc(Cl)cc3)[C@@H](c3ccc(Cl)cc3)N2C(=O)N2CCNC(=O)C2)c(OC(C)C)c1 [Nutlin-3] (10000 nM)", 91),
    ("O=c1[nH]cc(F)c(=O)[nH]1 [Fluorouracil] (1000 nM)", 105),
]

====

- Test system: CAL-85-1
- procedure.text: normalised viability (% of control), CellTiter-Blue; higher = more viable cells (about 100 = DMSO control)
- condition.label: incubation time: 72 h

# compound, target.system, normalised viability (%)
records = [
    ("CCCC(CCC)C(=O)O [Valproic acid] (10000 nM)", "CAL-85-1", 86.8),
    ("COC1=CC(c2cc3ccccc3[nH]2)=N/C1=C\\c1[nH]c(C)cc1C [Obatoclax] (10000 nM)", "CAL-85-1", 22.1),
    ("Cn1c(=O)c(F)c(Nc2ccc(I)cc2F)c2c(=O)n(C[C@@H](O)CO)cnc21 [TAK-733] (1000 nM)", "CAL-85-1", 39.7),
    ("O=c1[nH]c(=O)n([C@H]2C[C@H](O)[C@@H](CO)O2)cc1F [Floxuridine] (10000 nM)", "CAL-85-1", 39.3),
    ("COC1=C2C[C@@H](C)C[C@H](OC)[C@H](O)[C@@H](C)/C=C(\\C)[C@H](OC(N)=O)[C@@H](OC)/C=C\\C=C(/C)C(=O)NC(=CC1=O)C2=O [Geldanamycin] (10000 nM)", "CAL-85-1", 6.88),
    ("O=P(O)(NCCCl)NCCCl [Ifosfamide mustard] (10000 nM)", "CAL-85-1", 87.1),
    ("CN1CCN(c2ccc3nc(-c4c(N)c5c(F)cccc5[nH]c4=O)[nH]c3c2)CC1 [Dovitinib] (10000 nM)", "CAL-85-1", 87.1),
    ("O=C(c1ccc(OCCN2CCCCC2)cc1)c1c(-c2ccc(O)cc2)sc2cc(O)ccc12 [Raloxifene] (10000 nM)", "CAL-85-1", 98.6),
]

====

- Test system: HCC1937
- procedure.text: normalised viability (% of control), CellTiter-Blue; higher = more viable cells (100 = DMSO, 0 = benzethonium chloride kill control)
- condition.label: incubation time: 72 h
Decision: normalised viability beneath 90% gives 1; normalised viability meeting or exceeding 90% gives -1.

# molecule, category
data = [
    ("c1ccc(C2CN3CCSC3=N2)cc1 (configuration not stated) [Tetramisole] (1 nM)", -1),
    ("CC(=O)O[C@H]1C(=O)[C@@]2(C)[C@H]([C@H](OC(=O)c3ccccc3)[C@]3(O)C[C@H](OC(=O)[C@H](O)[C@@H](NC(=O)c4ccccc4)c4ccccc4)C(C)=C1C3(C)C)[C@]1(OC(C)=O)CO[C@@H]1C[C@@H]2O [Paclitaxel] (0.1 nM)", 1),
    ("CCS(=O)(=O)c1cccc(-c2cc(C(=O)NC3CCN(C)CC3)c(C)c3[nH]c4ncc(C)cc4c23)c1 [TAK-901] (0.1 nM)", -1),
    ("CCOc1cc2ncc(C#N)c(Nc3ccc(OCc4ccccn4)c(Cl)c3)c2cc1NC(=O)/C=C/CN(C)C [Neratinib] (0.1 nM)", 1),
]

====

- System: MDA-MB-453
- procedure.text: normalised viability (% of control), CellTiter-Blue; higher = more viable cells (about 100 = DMSO control)
- condition.label: 30 nM; incubation time: 72 h
Let's look at some molecules and their measured normalised viability.

# molecule, unit, normalised viability
records = [
    ("COc1ccc(C2=N[C@@H](c3ccc(Cl)cc3)[C@@H](c3ccc(Cl)cc3)N2C(=O)N2CCNC(=O)C2)c(OC(C)C)c1", "%", 92),
    ("O=C(c1ccc(OCCN2CCCCC2)cc1)c1c(-c2ccc(O)cc2)sc2cc(O)ccc12", "%", 97.5),
    ("O=c1[nH]c(=O)n([C@H]2C[C@H](O)[C@@H](CO)O2)cc1F", "%", 79),
    ("COC1=C2C[C@@H](C)C[C@H](OC)[C@H](O)[C@@H](C)/C=C(\\C)[C@H](OC(N)=O)[C@@H](OC)/C=C\\C=C(/C)C(=O)NC(=CC1=O)C2=O", "%", 97.3),
    ("CN1CCN(c2ccc3nc(-c4c(N)c5c(F)cccc5[nH]c4=O)[nH]c3c2)CC1", "%", 82.3),
    ("O=P(O)(NCCCl)NCCCl [Ifosfamide mustard]", "%", 95.5),
    ("C[C@@]1(C(=O)Nc2ccc(F)nc2)CCCN1c1nc(Nc2cc(C3CC3)n[nH]2)c2cccn2n1", "%", 84),
]

====

- Tested on: MFM-223
- procedure.text: normalised viability (% of control), CellTiter-Blue; higher = more viable cells (100 = DMSO, 0 = benzethonium chloride kill control)
- condition.label: incubation time: 72 h
quantity.kind: normalised viability (%)

# compound, quantity.kind, unit, meas.value
measured = [
    ("CN1CCN(c2ccc3nc(-c4c(N)c5c(F)cccc5[nH]c4=O)[nH]c3c2)CC1 [Dovitinib] (1 nM)", "normalised viability", "%", 80.6),
    ("CCS(=O)(=O)c1cccc(-c2cc(C(=O)NC3CCN(C)CC3)c(C)c3[nH]c4ncc(C)cc4c23)c1 [TAK-901] (0.1 nM)", "normalised viability", "%", 96.7),
    ("O=c1[nH]c(=O)n([C@H]2C[C@H](O)[C@@H](CO)O2)cc1F [Floxuridine] (1 nM)", "normalised viability", "%", 103),
    ("COC(=O)C[C@](O)(CCCC(C)(C)O)C(=O)O[C@@H]1C(OC)=C[C@]23CCCN2CCc2cc4c(cc2[C@H]13)OCO4 [Omacetaxine] (1 nM)", "normalised viability", "%", 90.3),
    ("O=P(O)(NCCCl)NCCCl [Ifosfamide mustard] (1 nM)", "normalised viability", "%", 94.9),
    ("Cn1cnc2c(F)c(Nc3ccc(Br)cc3F)c(C(=O)NOCCO)cc21 [MEK-162] (0.1 nM)", "normalised viability", "%", 92.1),
    ("COc1c(C)cnc(Cn2cnc3c(Cl)nc(N)nc32)c1C [BIIB021] (1 nM)", "normalised viability", "%", 80.8),
]

====

- Tested on: Hs578T
- procedure.text: normalised viability (% of control), CellTiter-Blue; higher = more viable cells (100 = DMSO, 0 = benzethonium chloride kill control)
- condition.label: incubation time: 72 h
# key: entry, value: normalised viability
quantity.kind: normalised viability

# compound, meas.value
rows = [
    ("CC(C)(C)c1cc(NC(=O)Nc2ccc(-c3cn4c(n3)sc3cc(OCCN5CCOCC5)ccc34)cc2)no1 [Quizartinib] (0.1 nM)", "120%"),
    ("CN1CCN(c2ccc3nc(-c4c(N)c5c(F)cccc5[nH]c4=O)[nH]c3c2)CC1 [Dovitinib] (1 nM)", "96.5%"),
    ("CC(C)C[C@H](NC(=O)[C@H](Cc1ccccc1)NC(=O)c1cnccn1)B(O)O [Bortezomib] (0.1 nM)", "96.4%"),
    ("COC(=O)C[C@](O)(CCCC(C)(C)O)C(=O)O[C@@H]1C(OC)=C[C@]23CCCN2CCc2cc4c(cc2[C@H]13)OCO4 [Omacetaxine] (1 nM)", "106%"),
    ("COc1ncc(-c2ccc3nccc(-c4ccnnc4)c3c2)cc1NS(=O)(=O)c1ccc(F)cc1F (0.1 nM)", "112%"),
    ("C#Cc1cccc(Nc2ncnc3cc(OC)c(OCCCCCCC(=O)NO)cc23)c1 [CUDC-101] (1 nM)", "94.9%"),
    ("c1ccc(C2CN3CCSC3=N2)cc1 (configuration not stated) [Tetramisole] (1 nM)", "110%"),
]

====

Reported normalised viability is given for each of the following compounds.
- Test system: MDA-MB-436
- procedure.text: normalised viability (% of control), CellTiter-Blue; higher = more viable cells (about 100 = DMSO control)
- condition.label: 10000 nM; incubation time: 72 h

# compound, target.system, unit, normalised viability
measured = [
    ("CCCC(CCC)C(=O)O", "MDA-MB-436", "%", 132),
    ("CS(=O)(=O)OCCCCOS(C)(=O)=O", "MDA-MB-436", "%", 95.2),
    ("COC1=CC(c2cc3ccccc3[nH]2)=N/C1=C\\c1[nH]c(C)cc1C", "MDA-MB-436", "%", 21.5),
    ("COc1c(C)cnc(Cn2cnc3c(Cl)nc(N)nc32)c1C", "MDA-MB-436", "%", 25.5),
    ("C[C@@]1(C(=O)Nc2ccc(F)nc2)CCCN1c1nc(Nc2cc(C3CC3)n[nH]2)c2cccn2n1", "MDA-MB-436", "%", 33.9),
    ("O=P(O)(NCCCl)NCCCl [Ifosfamide mustard]", "MDA-MB-436", "%", 104),
]
